# target system: Estrogen receptor (Homo sapiens)
# assay protocol: CCTE_Deisenroth_AIME_96WELL_LUC_Active: CCTE's 96-well Estrogen Receptor Transactivation Assay with AIME metabolic competence (ERTA luciferase; metabolism positive), Deisenroth Lab (AID 2284023)
Records with an inconclusive call do not appear. Activity calls are given as the source filed them. The calls were made as follows: active = hit-call score of the fitted dose curve at least 0.9, where 1 is the maximum; inconclusive = response in the unintended direction; inactive = score below 0.9.
The categories you may choose from are true (1) = active, false (0) = inactive

CCCCOC(=O)c1ccccc1C(=O)OCCCC = false (0)
CCCCC(CC)COC(=O)c1ccccc1C(=O)OCC(CC)CCCC (centres undefined) = false (0)
COc1ccc(C(c2ccc(OC)cc2)C(Cl)(Cl)Cl)cc1 = true (1)

Now let's try a different one.
For this compound, state the assay outcome: Oc1ccccc1-c1ccccc1
true (1)

====

# Read-out: CYP2C8 (gene 1558)
# assay protocol: LTEA_HepaRG_CYP2C8: Life Technologies and Expression Analysis (LTEA) Assay for CYP2C8 using HepaRG (AID 2283483)
# recorded conditions: mRNA level, 48 h; actives raise or lower the signal
# Procedure: LTEA_HepaRG is a cell based, multiplexed-readout assay that uses HepaRG, a human liver cell line, with measurements taken at 48 hours after chemical dosing on a 96-well plate.LTEA_HepaRG_CYP2C8 is one of 102 assay component(s) measured in the LTEA HepaRG cell culture assay. It is a marker of NR mediated metabolism.Data from the assay component LTEA_HepaRG_CYP2C8 was analyzed into 1 endpoint. […]
Activity calls are given as the source filed them. Rule for the calls: active = hit-call score of the fitted dose curve at least 0.9, where 1 is the maximum; inactive = score below 0.9.
Please state which outcome applies, choosing from t = active, f = inactive

CC(C)(C)c1ccc(CSc2cnn(C(C)(C)C)c(=O)c2Cl)cc1 = t
CCCCNC(=O)n1c(NC(=O)OC)nc2ccccc21 = f
CCOc1cc(Oc2ccc(C(F)(F)F)cc2Cl)ccc1[N+](=O)[O-] = t

Per the assay record, what outcome was assigned to COP(N)(=O)SC (stereo not drawn) ?
f

GET /call?item= CCOP(=S)(OCC)SCn1c(=O)oc2cc(Cl)ccc21 returns the recorded outcome of this test.
f

Give the logged outcome of this assay for the following molecule: OC(c1ccc(Cl)cc1)(c1cncnc1)c1ccccc1Cl (stereo not drawn)
t

Outcome logged for COC(=O)c1ccccc1C(=O)OC in this assay:
f

How did this test come out for O=C(O)COc1nc(Cl)c(Cl)cc1Cl ?
f

Please state the recorded outcome for this molecule: CCNc1nc(Cl)nc(NCC)n1
f

// return assay outcome for COP(=S)(OC)Oc1nc(Cl)c(Cl)cc1Cl
f

Please state the recorded outcome for this molecule: CC(Oc1ccc(Cl)cc1Cl)C(=O)O (stereo not drawn)
f

Hi team, can someone confirm the assay call for CNC(=O)ON=CC(C)(C)SC ?
f

For COC(=O)C=C(C)OP(=O)(OC)OC , what call appears in the results of this test?
f

====

# Read-out: Cytochrome P450 (CYP1A1), CYP1A1 (gene 1543)
# assay protocol: LTEA_HepaRG_CYP1A1: Life Technologies and Expression Analysis (LTEA) Assay for Cytochrome P450 (CYP1A1) using HepaRG (AID 2283454)
# recorded conditions: mRNA level, 48 h; actives raise or lower the signal
Activity calls are given as the source filed them. How the source made its calls: active means hit-call score of the fitted dose curve at least 0.9, where 1 is the maximum; inactive means score below 0.9.
Hi! Could you answer with just one of these? Y (active), N (inactive)

Recorded test call requested for CCCC1COC(Cn2cncn2)(c2ccc(Cl)cc2Cl)O1 (configuration not stated)
Y

Could you check what this test reported for COC(=O)C(C)Oc1ccc(Oc2ccc(Cl)cc2Cl)cc1 (configuration not stated) ?
Y

Hello, I am checking results. What call was entered for CCCCNC(=O)OCC#CI ?
Y
